Give viability for every item shown.
METHOD_SUMMARY: SK-BR-3 cell growth inhibitors, pilot screen, 24 h, human (AID 572);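 further: compound exposure lasted between 18 and 24 h rather than exactly 24 h; 100% = carrier-treated control wells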
CONDITION_DESCRIPTION: SK-BR-3 viability, CellTiter-Glo luminescence, at 10 µM, stronger effect = lower value
The reply should contain only the number, in %.

Lab note: CC(C)COc1ccc(-c2nnn(CC(=O)N3CCCC3)n2)cc1 gave viability of 86

Lab note: CN(Cc1ccccc1)C(=O)c1cc(-c2ccc(Br)cc2)on1 gave viability of 80

Lab note: Cc1cc(C(F)(F)F)nc(NCc2cccnc2)n1 gave viability of 97

Lab note: CC1(C)CC(=O)C=C(NCc2ccncc2)C1 gave viability of 89

Lab note: COc1ccc(C2C3=C(CCCC3=O)Nc3nc(SCc4ccccc4)nn32)cc1OC (configuration not stated) gave viability of 101

Lab note: Cc1occc1C(=O)Nc1cccnc1 gave viability of 101

Lab note: CC12COC3(C(=O)Nc4ccc(Cl)cn4)CC1CCC32C (configuration not stated) gave viability of 72

Lab note: Cc1nc2sc(C(c3cccc(F)c3)N3CCN(C(=O)c4ccco4)CC3)c(O)n2n1 (configuration not stated) gave viability of 94

Lab note: C=CCc1ccccc1OCC(O)CN1CCN(Cc2ccc3c(c2)OCO3)CC1 (configuration not stated) gave viability of 101

Lab note: O=C(CCn1c(=O)c2ccccc2n(CC(=O)NCCC2=CCCCC2)c1=O)NCc1ccco1 gave viability of 99

Lab note: COC(=O)c1ccc2c(c1)nc(C)n2CCO gave viability of 104

Lab note: O=C(COC(=O)c1ccco1)NCc1cccs1 gave viability of 112

====

METHOD_SUMMARY: growth inhibitors of H69AR lung tumor, primary screen, human, duplicate replicates (AID 580);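 further: 100% = mean luminescence of untreated wells and 0% = no signal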
CONDITION_DESCRIPTION: H69AR lung tumor cells viability, ATP luminescence, 72 h; at 10 µM; stronger effect = lower value
METRIC_NAME: viability (%)
The reply should contain only the number, in %.

Lab note: O=C(CCc1ccc(S(=O)(=O)N2CCOCC2)cc1)NCCc1ccccn1 gave viability of 87.9

Lab note: CC1(C)CC(=O)C2=C(C1)N(CC1CCCO1)C(=O)C2(O)C(F)(F)F (stereo unspecified) gave viability of 101

Lab note: COc1ccc(CCNc2oc(COc3ccc(F)cc3)nc2C#N)cc1 gave viability of 93.7

Lab note: O=C(NCCSCc1ccco1)Nc1cccc(Cl)c1 gave viability of 86.3

Lab note: Cc1nnc(SCC(=O)N2CCC(C(N)=O)CC2)s1 gave viability of 91.2

Lab note: COc1ccc(C2C3=C(OC(C)=O)c4ccccc4C3=Nc3c2c(=O)n(C)c(=O)n3C)cc1 (stereo unspecified) gave viability of 74.1

Lab note: CNC(=O)NCCN1CCCC1=O gave viability of 102

Lab note: CCn1c(SCC(=O)N2c3ccccc3CCc3ccccc32)nc2c1c(=O)n(C)c(=O)n2C gave viability of 94.3

Lab note: O=C(c1ccccc1)N1CCN(Cc2ccccc2Br)CC1 gave viability of 92.3

Lab note: O=C1OC(c2ccc(O)cc2)(c2ccc(O)cc2)c2ccccc21 gave viability of 102

Lab note: Cc1cc(Br)c(S(=O)(=O)n2nnc3ccccc32)cc1C gave viability of 81.8

====

METHOD_SUMMARY: Restrictive medium S. cerevisiae growth inhibition, OD615, pilot screen of yeast lifespan reduction project, restrictive growth control (AID 706);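 further: modified DeaD lifespan yeast strain shifted to restrictive glucose medium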
CONDITION_DESCRIPTION: OD615, 48 h, at 10 µM, stronger effect = higher value
Give growth inhibition for every item shown.
The reply should contain only the number, in %.

Lab note: C=CCn1c(SCC(=O)Nc2cccc(OC)c2)nnc1-c1cccnc1 gave growth inhibition of -8.35

Lab note: Cc1[nH]c2ccccc2c1Cc1nnc(SCC(=O)NCc2ccco2)o1 gave growth inhibition of 12.7

Lab note: CCN(c1ccc2c(c1)OCO2)S(=O)(=O)c1cc(Br)cc2c1N(C(=O)C1CC1)CC2 gave growth inhibition of -14.7

Lab note: Cn1cccc1Cc1nnc(SCC(=O)N2CCOCC2)n1-c1ccc(F)cc1 gave growth inhibition of 19.7

Lab note: OC(CN1CCN(c2ccccc2)CC1)c1ccc2c(c1)CCN2 (stereo not given) gave growth inhibition of -5.32

====

Give inhibition for every item shown.
METHOD_SUMMARY: 384-well plate pilot, post-Golgi transport modulator project, inhibition of yeast transport mutant growth (AID 636)
CONDITION_DESCRIPTION: absorbance 615 nm, about 18 h, stronger effect = higher value
The reply should contain only the number, in %.

Lab note: COc1ccccc1CN1CC(C(=O)NCc2cccnc2)CC1=O (configuration not stated) gave inhibition of -2.99

Lab note: CC1=C(C(N)=O)C(c2ccc(Cl)cc2Cl)n2ncnc2N1 (configuration not stated) gave inhibition of 0

Lab note: CCOC(=O)Cc1csc(NC(=O)c2cccc(OC)c2)n1 gave inhibition of -5.75

Lab note: CCCOc1cccc(C(=O)N(Cc2ccco2)C2CCS(=O)(=O)C2)c1 (configuration not stated) gave inhibition of -3.6

Lab note: COc1ccc(NC(=O)CCNC(=O)Cn2ccc3ccccc3c2=O)c(OC)c1 gave inhibition of -7.97

Lab note: CCC(Sc1nc2n[nH]c(C)c2c(=N)n1-c1cc(Cl)ccc1C)C(=O)N1CCOCC1 (configuration not stated) gave inhibition of 2.37

Lab note: CC1CCCC(NC(=O)CN2CCN(Cc3ccc(Cl)cc3)C2=O)C1C (configuration not stated) gave inhibition of -1.43

Lab note: CCOC(=O)c1ccccc1NC1c2ccccc2C(=O)N1C1CCN(C(=O)OCC)CC1 (configuration not stated) gave inhibition of -4.13

Lab note: CC1(C)S[C@@H]2[C@H](NC(=O)C(C(=O)O)c3ccccc3)C(=O)N2[C@H]1C(=O)O (some centres not stated) gave inhibition of -1.43

Lab note: COc1ccc(-c2nc(N)nc(C)c2Oc2ccccc2Br)c(O)c1 gave inhibition of -4.34

Lab note: Cc1ccc2c(c1)sc1ncc(NC(=O)c3ccccc3)c(=O)n12 gave inhibition of -0.67

Lab note: COc1ccc(CN(CC(=O)NCC2CCCO2)C(=O)CCC(=O)Nc2cc(C)on2)cc1 (configuration not stated) gave inhibition of 4.53

Lab note: CCCc1c(OCCCCc2nn[nH]n2)ccc(C(C)=O)c1O gave inhibition of -1.56

Lab note: Cc1ccc2nc3c(cc2c1)CN(Cc1ccco1)C(=NCC1CCCO1)S3 (configuration not stated) gave inhibition of 9.33

Lab note: COC(=O)c1[nH]c(C)c(/C(O)=C2\C(=O)C(=O)N(CCN(C)C)C2c2ccccc2OC)c1C (configuration not stated) gave inhibition of -6.89

Lab note: COc1ccc(N2C(=O)C3C4C=CC(C4)C3C2=O)nn1 (configuration not stated) gave inhibition of -0.91

Lab note: COC(=O)c1nnn(-c2ccccc2)c1N gave inhibition of -1.82

Lab note: COc1ccc(CN(C(=O)CSc2nnc(-c3ccccc3F)o2)c2ccc(F)cc2)cc1 gave inhibition of -5.2

Lab note: CCOC(=O)NC(=O)CSc1nnnn1-c1ccc(Cl)cc1 gave inhibition of -5.2

Lab note: CN(C)S(=O)(=O)n1cnc(-c2ccccc2)c1-c1ccccc1 gave inhibition of -1.32

Lab note: COc1ccc(CCN2C(=O)CC(N3CCN(S(=O)(=O)c4ccccc4)CC3)C2=O)cc1 (configuration not stated) gave inhibition of 2.05

Lab note: CN/C(=C/[N+](=O)[O-])NCCSCc1ccc(CN(C)C)o1 gave inhibition of -2.47

====

METHOD_SUMMARY: reversal of MRP1-mediated doxorubicin resistance, pilot screen, H69AR cells, doxorubicin co-treatment (AID 601)
CONDITION_DESCRIPTION: H69AR cells + 2 uM doxorubicin, CellTiter-Glo, 72 h; at 10 µM; stronger effect = higher value
Give differential viability (reversal) for every item shown.
The reply should contain only the number, in %.

Lab note: Nc1nc(NCc2ccco2)nn1-c1ccccc1 gave differential viability (reversal) of 15.7

Lab note: Cc1ccc(-n2ncc3c(N4CCN(c5ccc(F)cc5)CC4)ncnc32)c(C)c1 gave differential viability (reversal) of 31.8

Lab note: CCN(CC(=O)NC(=O)NCc1ccco1)Cc1nc2ccccc2c(=O)[nH]1 gave differential viability (reversal) of 2.42

Lab note: O=C(Nc1cnn(Cc2ccc(F)cc2)c1)c1cnccn1 gave differential viability (reversal) of 1.69

Lab note: Cc1c(C(=O)NCc2ccccn2)sc2nc(-c3ccc(F)cc3)cn12 gave differential viability (reversal) of 13.1

Lab note: O=C(Cc1ccc(S(=O)(=O)N2CCCC2)s1)Nc1nc2c(s1)CCCC2 gave differential viability (reversal) of 1

Lab note: O=C(O)c1ccc(CSc2ncn[nH]2)cc1 gave differential viability (reversal) of -6.27

Lab note: COc1ccccc1CN1CC(C(=O)NCc2cccnc2)CC1=O (stereo not given) gave differential viability (reversal) of 2.3

Lab note: OC(CCN1CCCCC1)(c1ccccc1)c1ccccc1 gave differential viability (reversal) of 0.38

Lab note: O=C1C2CC=C(Cl)CC2C(=O)N1CNc1ccccn1 (stereo not given) gave differential viability (reversal) of -6.09

Lab note: COc1ccccc1-c1nnc(SCC(=O)N2CC(C)CC(C)C2)o1 (stereo not given) gave differential viability (reversal) of -5.03

Lab note: O=C(c1ccc(Br)o1)N1CCN(c2ccc3nnc(-c4ccccc4)n3n2)CC1 gave differential viability (reversal) of 38.7

Lab note: Cc1nc2sccn2c(=O)c1CCN1CCC(=C(c2ccccc2)c2ccc(F)cc2)CC1 gave differential viability (reversal) of -12.5

Lab note: COc1ccc(CN(C)CC(=O)c2c(N)n(Cc3ccccc3)c(=O)n(C)c2=O)c(OC)c1 gave differential viability (reversal) of 10.3

Lab note: COc1ccc(NC(=O)N(C2CCCCC2)C2CCN(C(C)C)CC2)c(OC)c1 gave differential viability (reversal) of 19.4

Lab note: CCSc1nc(-c2ccc(OC)cc2)ccc1C#N gave differential viability (reversal) of -19.8

Lab note: Cc1cc(C)cc(OCC(=O)NC2=NCCS2)c1 gave differential viability (reversal) of 2.82

Lab note: CCC(=O)Nc1ccc(NC(=O)c2ccccn2)cn1 gave differential viability (reversal) of 13.6

Lab note: O=C(Nc1cc(C(F)(F)F)ccc1Cl)c1cc(C2CC2)on1 gave differential viability (reversal) of 3.55

Lab note: C=C(CC)C(=O)c1ccc(OCC(=O)O)c(Cl)c1Cl gave differential viability (reversal) of 0.86

Lab note: COc1cc2c(cc1OC)CN(CC(=O)Nc1cccc(C)c1)CC2 gave differential viability (reversal) of 9.21

Lab note: COc1ccc(C(=O)CSc2nnc(CNc3ccc(C)cc3C)o2)cc1 gave differential viability (reversal) of 0.595

Lab note: CC(C)c1nnc(NC(=O)CCC(=O)NCc2ccc3c(c2)OCO3)s1 gave differential viability (reversal) of -1.39

Lab note: Cc1csc(NC(=O)c2ccccc2C(=O)O)n1 gave differential viability (reversal) of -0.43

Lab note: Cc1ccc(S(=O)(=O)Cn2nnnc2C(C(C)C)N2CCN(C(=O)c3ccco3)CC2)cc1 (stereo not given) gave differential viability (reversal) of 8.2

Lab note: CN1CC=C2C(C#N)=C(N)C(C#N)(C#N)C(Cc3ccccc3)C2C1 (stereo not given) gave differential viability (reversal) of -2.88

Lab note: COc1cccc(OC)c1OCCCSc1nc(C)cc(=O)[nH]1 gave differential viability (reversal) of -5.15

Lab note: CCCC(CCC)C(=O)NCCN1CCOCC1 gave differential viability (reversal) of 10.2

Lab note: CC(=O)OCC1=C(C(=O)O)N2C(=O)[C@@H](NC(=O)Cc3cccs3)[C@H]2SC1 gave differential viability (reversal) of 3.98

Lab note: Cc1cccc2c(=O)oc(-c3ccc4c(c3)C(=O)N(CC3CCCO3)C4=O)nc12 (stereo not given) gave differential viability (reversal) of 5.85

Lab note: CN1CCN(c2ccc(Cl)cc2NC(=O)c2cccc(S(=O)(=O)N(C)C)c2)CC1 gave differential viability (reversal) of 43.3

Lab note: CCOC(=O)c1cc2sc(C)cc2n1CC(=O)Nc1cccc(C)c1C gave differential viability (reversal) of -3.05

Lab note: Cc1csc(SCCn2c(N3CCCC3)nc3c2c(=O)[nH]c(=O)n3C)n1 gave differential viability (reversal) of -4.86

Lab note: Cn1cnnc1Sc1nc2c(c(=O)n(C)c(=O)n2C)n1C gave differential viability (reversal) of 5.7

Lab note: CN(C)S(=O)(=O)n1cnc(-c2ccccc2)c1-c1ccccc1 gave differential viability (reversal) of -3.79

Lab note: COCCCNC(=O)CCCn1c(=O)c2ccccc2n(CC(=O)Nc2c(C)cccc2C)c1=O gave differential viability (reversal) of 4.87

Lab note: Cc1cc(-c2ccccc2)nnc1NCCN1CCOCC1 gave differential viability (reversal) of -2.49

Lab note: Cc1occc1-c1nnc(SCC(=O)N2CCOCC2)n1Cc1ccco1 gave differential viability (reversal) of -2.24

Lab note: Cc1ccccc1N1CC(c2nc3ccccc3[nH]2)CC1=O (stereo not given) gave differential viability (reversal) of -0.615

Lab note: O=C1CC(c2ccccc2)CC(O)=C1C=NCCCN1CCOCC1 (stereo not given) gave differential viability (reversal) of 5.34

Lab note: O=C(COc1ccc(Cl)cc1)Nc1ncccn1 gave differential viability (reversal) of 14.6

Lab note: Cc1cc(CN2CCN(CCC#N)CC2)c(O)c(C2(C)CCCCC2)c1 gave differential viability (reversal) of -12.2

Lab note: COc1ccc(-c2[nH]nc3c2C(c2ccncc2)C(C#N)=C(N)O3)cc1 (stereo not given) gave differential viability (reversal) of 2.15

Lab note: COc1ccc2[nH]c(=O)c(CN(Cc3cccs3)Cc3nnnn3C(C)(C)C)cc2c1 gave differential viability (reversal) of 7.29

Lab note: N#CC(C(=O)CCN1C(=O)C2CC=CCC2C1=O)c1nc2ccccc2[nH]1 (stereo not given) gave differential viability (reversal) of 3.88
